Field: IC90. Provide a value for each of the compounds that follow.
tested on: P. falciparum strain TM90C2A; assay: labeled hypoxanthine susceptibility assay, P. falciparum TM90C2A; type: cell-based, Plasmodium falciparum; details: Plasmodium falciparum, TM90C2A, read-out: IC90 PfC2A
Give your result in nM as a bare value.

Note IC90 for the compound shown: OC(CNCCNCc1ccccc1)c1cc(C(F)(F)F)nc2c(C(F)(F)F)cccc12 (stereo not shown)
105

Note IC90 for the compound shown: C=CCNCC(O)c1cc(C(F)(F)F)nc2c(C(F)(F)F)cccc12 (stereo not shown)
101

Note IC90 for the compound shown: CC(C)NCC(O)c1cc(C(F)(F)F)nc2c(C(F)(F)F)cccc12 (stereo not shown)
107

Note IC90 for the compound shown: CSCCCNCC(O)c1cc(C(F)(F)F)nc2c(C(F)(F)F)cccc12 (stereo not shown)
132

Note IC90 for the compound shown: OC(c1cc(C(F)(F)F)nc2c(C(F)(F)F)cccc12)C1CCCCN1 (stereo not shown) [Mefloquine, mefloquine, reference compound]
171

Note IC90 for the compound shown: CNCC(O)c1cc(C(F)(F)F)nc2c(C(F)(F)F)cccc12 (stereo not shown)
236

Note IC90 for the compound shown: OC(CNC1CCC1)c1cc(C(F)(F)F)nc2c(C(F)(F)F)cccc12 (stereo not shown)
137

* * *

target: A2A receptor (Homo sapiens); construct: Caliper Biosciences (contract screen); assay: inhibition of the A2A receptor at 200 nM; type: binding; settings: 200 nM, duplicate; read-out: % A2A inhibition at 200 nM
Sequence (P29274 whole entry): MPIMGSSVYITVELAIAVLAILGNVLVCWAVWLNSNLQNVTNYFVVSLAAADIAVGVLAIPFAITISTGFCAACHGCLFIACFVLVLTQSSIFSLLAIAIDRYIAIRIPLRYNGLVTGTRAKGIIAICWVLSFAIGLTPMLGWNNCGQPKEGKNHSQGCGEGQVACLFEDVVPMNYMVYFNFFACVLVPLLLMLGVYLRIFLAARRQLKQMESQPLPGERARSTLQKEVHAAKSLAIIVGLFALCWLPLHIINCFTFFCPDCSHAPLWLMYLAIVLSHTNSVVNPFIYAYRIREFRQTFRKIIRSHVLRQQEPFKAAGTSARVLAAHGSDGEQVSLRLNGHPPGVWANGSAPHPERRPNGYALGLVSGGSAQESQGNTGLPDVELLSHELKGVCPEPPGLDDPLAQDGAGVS
Measurement Name: inhibition at 0.2 µM (%)
Give your result in % as a bare value.

Note inhibition at 0.2 µM for the molecule shown: CC(C)NCC(O)c1cc(C(F)(F)F)nc2c(C(F)(F)F)cccc12 (stereo not shown)
17

Note inhibition at 0.2 µM for the molecule shown: CSCCCNCC(O)c1cc(C(F)(F)F)nc2c(C(F)(F)F)cccc12 (stereo not shown)
1

Note inhibition at 0.2 µM for the molecule shown: OC(CNCCNCc1ccccc1)c1cc(C(F)(F)F)nc2c(C(F)(F)F)cccc12 (stereo not shown)
0

Note inhibition at 0.2 µM for the molecule shown: CNCC(O)c1cc(C(F)(F)F)nc2c(C(F)(F)F)cccc12 (stereo not shown)
0

* * *

system: P. falciparum strain TM91C235; assay: labeled hypoxanthine susceptibility assay, P. falciparum TM91C235; format: cell-based, Plasmodium falciparum; conditions: Plasmodium falciparum, read-out: PF C235 IC90
Parameter class (string): assigned from measured IC90. Ranges: range 1: < 0.02 µg/mL; range 2: ≥ 0.02 µg/mL and < 0.04 µg/mL; range 3: ≥ 0.04 µg/mL

Pick a category. Item: CCCNCC(O)c1cc(C(F)(F)F)nc2c(C(F)(F)F)cccc12 (racemic)
range 1

Pick a category. Item: CCN(CC)CC(O)c1cc(C(F)(F)F)nc2c(C(F)(F)F)cccc12 (racemic)
range 2

Pick a category. Item: CCCCN(CCC#N)CC(O)c1cc(C(F)(F)F)nc2c(C(F)(F)F)cccc12 (racemic)
range 3

Pick a category. Item: CCCCN(CCCC)CC(O)c1cc(C(F)(F)F)nc2c(C(F)(F)F)cccc12 (racemic)
range 2

Pick a category. Item: CC1C(NCC(O)c2cc(C(F)(F)F)nc3c(C(F)(F)F)cccc23)CC2CC1C2(C)C (centres unmarked)
range 1

Pick a category. Item: CC1CCN(CC(C)(C)NCC(O)c2cc(C(F)(F)F)nc3c(C(F)(F)F)cccc23)CC1 (racemic)
range 3

Pick a category. Item: C=CCNCC(O)c1cc(C(F)(F)F)nc2c(C(F)(F)F)cccc12 (centres unmarked)
range 1

Pick a category. Item: N#CCCN(CC(O)c1cc(C(F)(F)F)nc2c(C(F)(F)F)cccc12)C1CCCCC1 (racemic)
range 3

Pick a category. Item: CC(C)N(CC(O)c1cc(C(F)(F)F)nc2c(C(F)(F)F)cccc12)C(C)C (racemic)
range 2

Pick a category. Item: OC(CNC1CCC1)c1cc(C(F)(F)F)nc2c(C(F)(F)F)cccc12 (centres unmarked)
range 2

Pick a category. Item: CNCC(O)c1cc(C(F)(F)F)nc2c(C(F)(F)F)cccc12 (centres unmarked)
range 3

Pick a category. Item: CCCCNCC(O)c1cc(C(F)(F)F)nc2c(C(F)(F)F)cccc12 (racemic)
range 1

Pick a category. Item: CC(C)CC(C)NCC(O)c1cc(C(F)(F)F)nc2c(C(F)(F)F)cccc12 (centres unmarked)
range 1

Pick a category. Item: Cc1ccc(CNCC(O)c2cc(C(F)(F)F)nc3c(C(F)(F)F)cccc23)cc1 (racemic)
range 3

Pick a category. Item: CCC(C)CNCC(O)c1cc(C(F)(F)F)nc2c(C(F)(F)F)cccc12 (centres unmarked)
range 1

Pick a category. Item: CCC(CC)CNCC(O)c1cc(C(F)(F)F)nc2c(C(F)(F)F)cccc12 (centres unmarked)
range 1

Pick a category. Item: OC(CNC1CCCCC1)c1cc(C(F)(F)F)nc2c(C(F)(F)F)cccc12 (racemic)
range 1

Pick a category. Item: OC(CNc1nc2ccccc2[nH]1)c1cc(C(F)(F)F)nc2c(C(F)(F)F)cccc12 (racemic)
range 3

Pick a category. Item: CC(C)NCC(O)c1cc(C(F)(F)F)nc2c(C(F)(F)F)cccc12 (centres unmarked)
range 2

Pick a category. Item: OC(CNCCc1ccccc1)c1cc(C(F)(F)F)nc2c(C(F)(F)F)cccc12 (racemic)
range 2

* * *

tested on: MDR1-transfected MDCK cell monolayers; test: in vitro; details: dog, MDCK-MDR1, 2 h, 5 μM, pH 7.4
Field: % recovery (MDCK-MDR1 permeability assay). Provide a value for each of the molecules that follow.
Give your result in % as a bare value.

Recall the reported % recovery (MDCK-MDR1 permeability assay) of CCCCNCCNCC(O)c1cc(C(F)(F)F)nc2c(C(F)(F)F)cccc12 (centres unmarked) on MDR1-transfected MDCK cell monolayers and write it down.
42

Recall the reported % recovery (MDCK-MDR1 permeability assay) of CCCCNCC(O)c1cc(C(F)(F)F)nc2c(C(F)(F)F)cccc12 (racemic) on MDR1-transfected MDCK cell monolayers and write it down.
58

Recall the reported % recovery (MDCK-MDR1 permeability assay) of CNCC(O)c1cc(C(F)(F)F)nc2c(C(F)(F)F)cccc12 (centres unmarked) on MDR1-transfected MDCK cell monolayers and write it down.
59

Recall the reported % recovery (MDCK-MDR1 permeability assay) of OC(CNCC1CCCN1)c1cc(C(F)(F)F)nc2c(C(F)(F)F)cccc12 (centres unmarked) on MDR1-transfected MDCK cell monolayers and write it down.
28

Recall the reported % recovery (MDCK-MDR1 permeability assay) of CCC(C)CNCC(O)c1cc(C(F)(F)F)nc2c(C(F)(F)F)cccc12 (centres unmarked) on MDR1-transfected MDCK cell monolayers and write it down.
42

* * *

Field: IC50. Provide a value for each of the compounds that follow.
molecular target: CYP450 3A4 (Homo sapiens); test: CYP450 inhibition kit (drug-drug interaction), 3A4
Sequence (P08684 whole entry): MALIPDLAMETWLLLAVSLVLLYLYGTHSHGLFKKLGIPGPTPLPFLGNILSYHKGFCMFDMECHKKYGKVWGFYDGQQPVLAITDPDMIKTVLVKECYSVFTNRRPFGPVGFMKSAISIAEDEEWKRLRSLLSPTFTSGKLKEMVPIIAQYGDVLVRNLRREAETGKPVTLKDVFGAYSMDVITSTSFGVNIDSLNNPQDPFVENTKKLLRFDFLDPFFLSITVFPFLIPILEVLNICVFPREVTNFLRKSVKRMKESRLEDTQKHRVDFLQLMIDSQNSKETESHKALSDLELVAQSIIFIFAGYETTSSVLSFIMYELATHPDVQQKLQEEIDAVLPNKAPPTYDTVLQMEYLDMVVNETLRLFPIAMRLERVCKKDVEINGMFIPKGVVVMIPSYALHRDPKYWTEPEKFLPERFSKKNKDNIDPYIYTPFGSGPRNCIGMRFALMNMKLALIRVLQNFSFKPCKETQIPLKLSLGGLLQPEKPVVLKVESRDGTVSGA

Recall the reported IC50 of CC(C)CC(C)NCC(O)c1cc(C(F)(F)F)nc2c(C(F)(F)F)cccc12 (stereo not drawn) [WR308413] on CYP450 3A4 (Homo sapiens) and write it down.
> 40 µM

Recall the reported IC50 of CCC(C)CNCC(O)c1cc(C(F)(F)F)nc2c(C(F)(F)F)cccc12 (stereo not drawn) [WR308387] on CYP450 3A4 (Homo sapiens) and write it down.
> 40 µM

Recall the reported IC50 of CC1C(NCC(O)c2cc(C(F)(F)F)nc3c(C(F)(F)F)cccc23)CC2CC1C2(C)C (stereo not drawn) [WR308446] on CYP450 3A4 (Homo sapiens) and write it down.
> 40 µM

* * *

Field: CSI (C2A/W2). Provide a value for each of the compounds that follow.
system: P. falciparum strain TM90C2A; test: labeled hypoxanthine susceptibility assay, P. falciparum TM90C2A; assay type: cell-based, Plasmodium falciparum; details: ratio of IC90 C2A to IC90 W2
Enter the number alone.

Note CSI (C2A/W2) for the compound shown: OC(CNCCC1=CCCCC1)c1cc(C(F)(F)F)nc2c(C(F)(F)F)cccc12 (racemic)
7.8

Note CSI (C2A/W2) for the compound shown: CCN(CC)CC(O)c1cc(C(F)(F)F)nc2c(C(F)(F)F)cccc12 (racemic)
7.4

Note CSI (C2A/W2) for the compound shown: CC1CCN(CC(C)(C)NCC(O)c2cc(C(F)(F)F)nc3c(C(F)(F)F)cccc23)CC1 (racemic)
14.7

Note CSI (C2A/W2) for the compound shown: CCCCN(CCCC)CC(O)c1cc(C(F)(F)F)nc2c(C(F)(F)F)cccc12 (racemic)
7.9

Note CSI (C2A/W2) for the compound shown: OC(CNC1CCC1)c1cc(C(F)(F)F)nc2c(C(F)(F)F)cccc12 (centres unmarked)
8.5
